# MEASUREMENT_TARGET: Cathepsin K (Oryctolagus cuniculus) (UniProt P43236)
# Sequence (P43236 whole entry, looked up): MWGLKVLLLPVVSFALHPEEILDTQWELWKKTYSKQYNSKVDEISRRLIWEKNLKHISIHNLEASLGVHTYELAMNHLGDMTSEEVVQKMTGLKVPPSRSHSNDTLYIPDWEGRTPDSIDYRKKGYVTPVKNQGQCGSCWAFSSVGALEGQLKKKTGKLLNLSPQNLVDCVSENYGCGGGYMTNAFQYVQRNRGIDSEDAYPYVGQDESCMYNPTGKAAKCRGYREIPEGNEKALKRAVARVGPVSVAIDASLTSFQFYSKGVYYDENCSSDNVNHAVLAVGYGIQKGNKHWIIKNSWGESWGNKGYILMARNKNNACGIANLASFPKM
# PROTOCOL_SUMMARY: Inhibition of recombinant rabbit Cathepsin K in a fluorescence assay
pIC50: −log10 of the molar value.
MEASURE: pIC50

1) CC(C)C[C@H](NC(=O)OCc1ccccc1)C(=O)NCCNc1ccc(Cl)cc1 :: 6.46
2) CC(C)C[C@H](NC(=O)OCc1ccccc1)C(=O)NCCNc1ccccc1 :: 6.33
3) Cc1cccc(NCCNC(=O)[C@H](CC(C)C)NC(=O)OCc2ccccc2)c1 :: 6.34
4) Cc1ccc(NCCNC(=O)[C@H](CC(C)C)NC(=O)OCc2ccccc2)cc1 :: 6.72

The values you see were collected from BindingDB's records for doi:10.1021/jm010801s.
